Listed below: pKd values for each entry.
Target under test: HLA-A*03:01
Assay remarks: IEDB peptide-MHC binding, purified MHC/direct/fluorescence; filed as Kd, often an IC50 or EC50 that approximates it; bounds were set here for any values at or beyond the usual limits of such assays
Condition description: source organism: Brucella abortus
pKd: −log10 of the molar value.

IN: Assign pKd to the following record: `LSDDSGLMV`
OUT: ≤ 4.70

Query sequence follows.
IN: Assign pKd to the following record: `LTDAFHGYH`
OUT: ≤ 4.70

---

Target under test: HLA-A*02:19
Assay remarks: IEDB peptide-MHC binding, purified MHC/direct/fluorescence; filed as Kd, often an IC50 or EC50 that approximates it; bounds were set here for any values at or beyond the usual limits of such assays
Condition description: source organism: Rickettsia sibirica 246
pKd: −log10 of the molar value.
Attribute measured: pKd

IN: Assign pKd to the following record: `APVESMALF`
OUT: ≤ 4.70
